biological target: GRP94 (Sus scrofa, UniProt Q29092); construct: GRP94 was purified from porcine pancreas rough microsomes; from tissue; host or cells: porcine pancreas rough microsomes (lumenal contents); experiment: [3H]-NECA competitive displacement assay; format: binding, porcine; details: competitors at 50 μM
Sequence (Q29092 22-804): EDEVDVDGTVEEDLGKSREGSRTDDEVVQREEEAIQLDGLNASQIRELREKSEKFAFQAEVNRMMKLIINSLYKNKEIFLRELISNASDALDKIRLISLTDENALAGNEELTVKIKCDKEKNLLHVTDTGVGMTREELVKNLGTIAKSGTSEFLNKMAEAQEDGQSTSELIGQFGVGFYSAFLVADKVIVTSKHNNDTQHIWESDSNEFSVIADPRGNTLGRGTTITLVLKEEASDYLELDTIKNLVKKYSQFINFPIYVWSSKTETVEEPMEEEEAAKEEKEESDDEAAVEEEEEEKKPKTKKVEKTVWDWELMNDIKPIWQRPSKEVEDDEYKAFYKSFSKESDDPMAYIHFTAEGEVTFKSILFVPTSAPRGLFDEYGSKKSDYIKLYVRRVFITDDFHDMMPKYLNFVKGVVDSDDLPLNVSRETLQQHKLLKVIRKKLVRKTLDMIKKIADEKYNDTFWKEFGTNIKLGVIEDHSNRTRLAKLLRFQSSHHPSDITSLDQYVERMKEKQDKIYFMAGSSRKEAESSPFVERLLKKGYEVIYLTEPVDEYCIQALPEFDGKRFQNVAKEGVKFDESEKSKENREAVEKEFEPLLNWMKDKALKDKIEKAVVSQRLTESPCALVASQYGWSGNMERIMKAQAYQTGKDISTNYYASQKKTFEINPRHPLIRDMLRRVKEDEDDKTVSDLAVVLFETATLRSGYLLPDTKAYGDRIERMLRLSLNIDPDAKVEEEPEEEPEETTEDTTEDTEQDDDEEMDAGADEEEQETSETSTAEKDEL
Measurement Label: nucleoside base specificity: binding to GRP94 by [3H]-NECA displacement

Nc1nc2c(ncn2[C@@H]2O[C@H](COP(=O)(O)OP(=O)(O)OP(=O)(O)O)[C@@H](O)[C@H]2O)c(=O)[nH]1	little to no binding
O=c1ccn([C@@H]2O[C@H](COP(=O)(O)OP(=O)(O)OP(=O)(O)O)[C@@H](O)[C@H]2O)c(=O)[nH]1	little to no binding
Nc1ccn([C@@H]2O[C@H](COP(=O)(O)OP(=O)(O)OP(=O)(O)O)[C@@H](O)[C@H]2O)c(=O)n1	little to no binding
